# maps each entry to its melting point

As a guide, the following entries are already answered.
O=C(Nc1cccc(C(F)(F)F)c1)C(c1ccccc1)N1C(=O)CCC1=O (stereo not drawn)
158.2 to 159.4 °C
O=C(NCCCc1ccccc1)C(c1ccccc1)N1C(=O)CCC1=O (stereo not drawn)
133.1 to 133.9 °C
O=C(NCCc1ccc(Cl)cc1)C(c1ccccc1)N1C(=O)CCC1=O (stereo not drawn)
137.2 to 137.8 °C

Determine its reported melting point: O=C(NCc1ccccc1C(F)(F)F)C(c1ccccc1)N1C(=O)CCC1=O (stereo not drawn) 137.7 to 139.1 °C

Determine its reported melting point: O=C(NCc1ccccc1Cl)C(c1ccccc1)N1C(=O)CCC1=O (stereo not drawn) 152 to 153.6 °C

Determine its reported melting point: O=C(NCCc1cccc(C(F)(F)F)c1)C(c1ccccc1)N1C(=O)CCC1=O (stereo not drawn) 149.2 to 150.4 °C

Determine its reported melting point: O=C(NCc1ccccc1)C(c1ccccc1)N1C(=O)CCC1=O (stereo not drawn) 128.3 to 129.9 °C

Determine its reported melting point: O=C(Nc1ccc(F)cc1)C(c1ccccc1)N1C(=O)CCC1=O (stereo not drawn) 143.4 to 143.9 °C

Determine its reported melting point: O=C(Nc1ccc(C(F)(F)F)cc1)C(c1ccccc1)N1C(=O)CCC1=O (stereo not drawn) 188.1 to 188.5 °C

###

parameter: melting point

As a guide, the following entries are already answered.
O=C(NCCc1cccc(Cl)c1)C(c1ccccc1)N1C(=O)CCC1=O (stereo not drawn) [Compound 27]
137.4 to 138.2 °C
O=C(NCc1cccc(OC(F)(F)F)c1)C(c1ccccc1)N1C(=O)CCC1=O (stereo not drawn) [Compound 24]
129.6 to 130.4 °C
O=C(Nc1ccc(Cl)cc1)C(c1ccccc1)N1C(=O)CCC1=O (stereo not drawn) [Compound 9]
103.8 to 105.6 °C
O=C(Nc1ccccc1Cl)C(c1ccccc1)N1C(=O)CCC1=O (stereo not drawn) [Compound 7]
76.8 to 78.6 °C
O=C(Nc1ccccc1F)C(c1ccccc1)N1C(=O)CCC1=O (stereo not drawn) [Compound 4]
106.6 to 107.1 °C

Determine its reported melting point: O=C(NCCc1cccc(OC(F)(F)F)c1)C(c1ccccc1)N1C(=O)CCC1=O (stereo not drawn) [Compound 30] 113.3 to 114.2 °C

Determine its reported melting point: O=C(NCc1ccccc1F)C(c1ccccc1)N1C(=O)CCC1=O (stereo not drawn) [Compound 15] 148.3 to 149.3 °C

Determine its reported melting point: O=C(NCc1ccc(F)cc1)C(c1ccccc1)N1C(=O)CCC1=O (stereo not drawn) [Compound 17] 146.3 to 147.7 °C

Determine its reported melting point: O=C(NCc1cccc(F)c1)C(c1ccccc1)N1C(=O)CCC1=O (stereo not drawn) [Compound 16] 136.7 to 137.7 °C

###

molecular target: Cav2.2 channel (Rattus norvegicus, UniProt Q02294); construct: tissue Eurofins (Poitiers, France), contract assay; host or cells: rat cerebral cortex (own knowledge of the vendor's assay); assay: Radioligand binding, Cav2.2 channel; parameters: dose or concentration left out as unconfirmed; details: rat cerebral cortex; read-out: % Inhibition of Control Specific Binding, Cav2.2 Channel (Antagonist Radioligand)
Sequence (Q02294 whole entry): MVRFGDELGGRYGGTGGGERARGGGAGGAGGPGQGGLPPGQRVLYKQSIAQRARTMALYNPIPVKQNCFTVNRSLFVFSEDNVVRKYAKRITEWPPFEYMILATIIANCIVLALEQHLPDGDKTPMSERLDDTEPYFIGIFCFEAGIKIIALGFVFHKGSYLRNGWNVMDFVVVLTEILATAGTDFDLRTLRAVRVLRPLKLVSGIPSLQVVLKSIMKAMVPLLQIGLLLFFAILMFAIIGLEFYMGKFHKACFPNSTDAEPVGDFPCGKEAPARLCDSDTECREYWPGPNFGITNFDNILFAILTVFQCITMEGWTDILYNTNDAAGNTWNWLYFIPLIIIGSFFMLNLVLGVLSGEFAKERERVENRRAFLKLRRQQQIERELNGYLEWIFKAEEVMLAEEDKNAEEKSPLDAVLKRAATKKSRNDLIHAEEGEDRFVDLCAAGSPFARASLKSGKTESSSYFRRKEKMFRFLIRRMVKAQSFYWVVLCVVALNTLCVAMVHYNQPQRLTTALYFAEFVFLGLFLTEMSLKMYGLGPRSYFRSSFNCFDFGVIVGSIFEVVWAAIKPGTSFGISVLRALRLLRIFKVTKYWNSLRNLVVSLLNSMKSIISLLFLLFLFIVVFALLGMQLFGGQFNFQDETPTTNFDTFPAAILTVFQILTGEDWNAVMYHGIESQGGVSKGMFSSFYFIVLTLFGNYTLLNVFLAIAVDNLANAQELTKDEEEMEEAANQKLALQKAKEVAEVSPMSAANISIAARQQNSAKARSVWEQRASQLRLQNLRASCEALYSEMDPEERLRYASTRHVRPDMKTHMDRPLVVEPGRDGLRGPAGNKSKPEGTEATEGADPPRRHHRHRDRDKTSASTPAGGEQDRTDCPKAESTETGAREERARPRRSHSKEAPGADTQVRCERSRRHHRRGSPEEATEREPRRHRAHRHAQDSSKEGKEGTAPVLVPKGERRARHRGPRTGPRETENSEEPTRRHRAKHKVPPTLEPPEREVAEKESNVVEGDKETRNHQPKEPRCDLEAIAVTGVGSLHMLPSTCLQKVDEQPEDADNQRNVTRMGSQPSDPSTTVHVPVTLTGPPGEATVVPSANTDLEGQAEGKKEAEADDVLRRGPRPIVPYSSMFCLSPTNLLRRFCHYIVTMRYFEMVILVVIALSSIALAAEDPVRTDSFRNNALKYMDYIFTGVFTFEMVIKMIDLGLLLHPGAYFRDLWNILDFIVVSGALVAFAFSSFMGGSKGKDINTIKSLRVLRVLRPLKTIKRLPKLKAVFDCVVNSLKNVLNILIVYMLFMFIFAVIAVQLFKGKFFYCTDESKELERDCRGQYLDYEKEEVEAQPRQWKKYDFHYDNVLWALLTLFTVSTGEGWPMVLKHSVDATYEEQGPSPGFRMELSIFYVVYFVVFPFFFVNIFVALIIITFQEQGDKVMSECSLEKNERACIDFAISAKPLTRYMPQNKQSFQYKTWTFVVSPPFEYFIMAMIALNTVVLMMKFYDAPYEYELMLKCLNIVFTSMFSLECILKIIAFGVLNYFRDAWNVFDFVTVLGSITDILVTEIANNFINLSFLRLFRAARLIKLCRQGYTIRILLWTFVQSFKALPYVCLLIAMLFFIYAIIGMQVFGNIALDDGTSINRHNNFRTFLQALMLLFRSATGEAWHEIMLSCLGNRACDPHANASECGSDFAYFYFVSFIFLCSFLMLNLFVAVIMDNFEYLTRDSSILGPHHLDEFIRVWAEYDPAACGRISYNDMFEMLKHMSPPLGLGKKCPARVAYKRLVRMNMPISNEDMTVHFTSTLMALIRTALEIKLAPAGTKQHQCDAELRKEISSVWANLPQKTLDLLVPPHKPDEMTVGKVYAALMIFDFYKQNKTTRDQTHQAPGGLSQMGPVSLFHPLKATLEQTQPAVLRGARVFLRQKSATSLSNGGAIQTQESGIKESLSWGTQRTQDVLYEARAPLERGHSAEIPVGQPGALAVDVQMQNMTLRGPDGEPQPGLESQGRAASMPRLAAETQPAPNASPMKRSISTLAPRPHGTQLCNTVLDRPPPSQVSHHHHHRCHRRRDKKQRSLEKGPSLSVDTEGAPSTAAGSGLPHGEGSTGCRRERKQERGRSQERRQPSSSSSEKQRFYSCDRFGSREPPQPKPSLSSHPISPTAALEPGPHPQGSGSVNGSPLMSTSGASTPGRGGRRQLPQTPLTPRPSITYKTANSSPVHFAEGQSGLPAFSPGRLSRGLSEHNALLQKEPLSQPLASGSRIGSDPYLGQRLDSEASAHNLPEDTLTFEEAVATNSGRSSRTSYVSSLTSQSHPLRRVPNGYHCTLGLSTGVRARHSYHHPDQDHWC
Sequence (P54287 whole entry partner): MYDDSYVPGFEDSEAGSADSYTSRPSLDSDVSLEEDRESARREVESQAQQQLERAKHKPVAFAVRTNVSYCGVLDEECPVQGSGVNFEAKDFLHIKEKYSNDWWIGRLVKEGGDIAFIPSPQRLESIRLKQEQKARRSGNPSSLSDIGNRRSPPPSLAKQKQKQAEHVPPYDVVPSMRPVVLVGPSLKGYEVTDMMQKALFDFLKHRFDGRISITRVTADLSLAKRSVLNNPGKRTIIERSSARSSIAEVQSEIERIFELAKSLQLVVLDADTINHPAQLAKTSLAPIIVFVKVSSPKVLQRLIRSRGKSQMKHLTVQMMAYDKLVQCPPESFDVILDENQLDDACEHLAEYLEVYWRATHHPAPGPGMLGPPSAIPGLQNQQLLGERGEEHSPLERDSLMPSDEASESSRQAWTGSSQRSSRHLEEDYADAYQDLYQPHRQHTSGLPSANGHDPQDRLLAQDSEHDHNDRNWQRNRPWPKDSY
Sequence (P54290 25-944 partner limits assumed): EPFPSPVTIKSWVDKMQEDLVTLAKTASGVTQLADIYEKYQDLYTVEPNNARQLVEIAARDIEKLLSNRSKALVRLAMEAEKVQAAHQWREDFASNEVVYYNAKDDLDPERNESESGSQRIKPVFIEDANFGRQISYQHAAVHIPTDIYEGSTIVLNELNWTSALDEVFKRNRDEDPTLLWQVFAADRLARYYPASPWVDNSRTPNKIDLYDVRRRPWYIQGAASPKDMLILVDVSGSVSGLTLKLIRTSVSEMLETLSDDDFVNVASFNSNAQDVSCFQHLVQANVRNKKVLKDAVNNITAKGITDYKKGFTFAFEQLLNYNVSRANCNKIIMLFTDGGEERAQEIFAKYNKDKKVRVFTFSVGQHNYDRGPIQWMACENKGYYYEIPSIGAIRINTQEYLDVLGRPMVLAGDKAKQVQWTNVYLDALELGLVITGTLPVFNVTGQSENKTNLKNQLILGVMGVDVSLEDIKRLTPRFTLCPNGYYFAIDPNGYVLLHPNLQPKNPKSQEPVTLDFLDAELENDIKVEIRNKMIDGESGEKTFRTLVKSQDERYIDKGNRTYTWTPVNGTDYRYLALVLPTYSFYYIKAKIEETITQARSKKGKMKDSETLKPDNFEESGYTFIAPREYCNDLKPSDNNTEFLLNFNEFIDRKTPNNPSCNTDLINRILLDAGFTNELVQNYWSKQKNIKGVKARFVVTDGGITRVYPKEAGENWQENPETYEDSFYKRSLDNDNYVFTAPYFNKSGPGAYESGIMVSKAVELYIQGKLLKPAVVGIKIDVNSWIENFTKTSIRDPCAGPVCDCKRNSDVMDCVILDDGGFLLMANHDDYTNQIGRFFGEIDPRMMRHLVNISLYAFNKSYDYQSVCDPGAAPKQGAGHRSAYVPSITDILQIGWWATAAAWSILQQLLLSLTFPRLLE
Sequence (P54290 945-1091 partner limits assumed): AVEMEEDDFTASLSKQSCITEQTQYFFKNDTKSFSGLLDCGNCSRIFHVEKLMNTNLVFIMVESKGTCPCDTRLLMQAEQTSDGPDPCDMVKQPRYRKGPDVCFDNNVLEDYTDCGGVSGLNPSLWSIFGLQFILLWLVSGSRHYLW
parameter: inhibition

O=C(NCCc1cccc(C(F)(F)F)c1)C(c1ccccc1)N1C(=O)CCC1=O (stereo not drawn)
-0.6%
O=C(NCCc1cccc(OC(F)(F)F)c1)C(c1ccccc1)N1C(=O)CCC1=O (stereo not drawn)
4%

Now for another entry.
Determine its reported inhibition: O=C(NCCc1ccccc1)C(c1ccccc1)N1C(=O)CCC1=O (stereo not drawn) 2.5%
